TARGET UNDER TEST: CCR5, P51681
Sequence (P51681 whole entry): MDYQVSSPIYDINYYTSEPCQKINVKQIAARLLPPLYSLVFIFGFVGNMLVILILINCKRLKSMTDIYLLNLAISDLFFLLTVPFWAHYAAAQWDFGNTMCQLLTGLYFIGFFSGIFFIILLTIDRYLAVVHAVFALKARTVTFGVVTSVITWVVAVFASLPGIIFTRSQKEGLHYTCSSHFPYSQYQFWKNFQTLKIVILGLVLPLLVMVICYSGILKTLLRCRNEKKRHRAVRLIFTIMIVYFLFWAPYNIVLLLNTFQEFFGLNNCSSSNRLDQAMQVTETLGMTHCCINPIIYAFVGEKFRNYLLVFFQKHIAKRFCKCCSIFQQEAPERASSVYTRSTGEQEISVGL
ASSAY COMMENT: competitive radioligand binding on whole CHO-CCR5 cells at 4 C, 12 pM [125I]MIP-1α tracer
CONDITION: remark: other sources report otherwise
MEASURED PROPERTY: IC50 (nM)
The response must be a number in nM with no trailing unit.

Task: Consider the binder RANTES, P13501 24-91 (ligand, human, UniProt P13501 24-91, looked up) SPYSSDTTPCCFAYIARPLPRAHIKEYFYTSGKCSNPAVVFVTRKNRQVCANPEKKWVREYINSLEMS and give its measured IC50.
Result: 1.7
